Target system: Leukotriene B4 receptor (Homo sapiens, UniProt Q9NPC1+Q15722)
Sequence (Q15722 whole entry, looked up): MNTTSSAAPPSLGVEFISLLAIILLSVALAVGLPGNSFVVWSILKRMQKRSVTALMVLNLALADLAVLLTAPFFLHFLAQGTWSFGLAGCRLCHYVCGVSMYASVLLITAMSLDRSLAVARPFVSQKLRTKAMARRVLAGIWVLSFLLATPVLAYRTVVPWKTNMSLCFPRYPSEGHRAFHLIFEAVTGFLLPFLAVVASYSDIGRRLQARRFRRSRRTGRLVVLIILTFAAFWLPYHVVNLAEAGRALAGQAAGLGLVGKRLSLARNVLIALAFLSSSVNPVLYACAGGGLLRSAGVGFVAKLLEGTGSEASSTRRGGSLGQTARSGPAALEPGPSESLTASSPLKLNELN
Sequence (Q9NPC1 whole entry, looked up): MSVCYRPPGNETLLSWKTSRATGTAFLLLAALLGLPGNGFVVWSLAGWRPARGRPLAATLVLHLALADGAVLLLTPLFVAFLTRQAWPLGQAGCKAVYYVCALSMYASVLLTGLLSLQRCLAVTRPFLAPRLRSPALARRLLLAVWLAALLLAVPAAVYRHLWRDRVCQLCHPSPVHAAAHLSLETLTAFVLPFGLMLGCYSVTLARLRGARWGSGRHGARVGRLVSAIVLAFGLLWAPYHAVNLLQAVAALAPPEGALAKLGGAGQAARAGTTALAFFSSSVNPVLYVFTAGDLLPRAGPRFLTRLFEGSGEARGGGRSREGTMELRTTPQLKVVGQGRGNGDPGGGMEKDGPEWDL
Run description: Antagonist activity against LTB4 receptor in human U-937 cells at 0.00001 M incubated for 40 mins by liquid scintillation counting method
Assay type: cell-based
Run conditions: filed as antagonist, dose 10 µM
Outcome: 1 for inhibition of at least 80%; 0 for anything lower.

Compound	Label value
CN(CCc1ccccc1)C(=O)C1=C(C(=O)O)Oc2ccc(OCc3ccccc3)cc2O1	1
CN(CCc1ccccc1)C(=O)C1=C(C(=O)O)Oc2cc(OCc3ccc4ccccc4c3)ccc2O1	1
O=C(O)C1=C(C(=O)N2CCC(Cc3ccccc3)CC2)Oc2cccc(OCc3ccccc3)c2O1	0
CN(CCc1ccccc1)C(=O)C1=C(C(=O)O)Oc2cc(OCc3ccccc3)ccc2O1	1
CC(OCc1ccccc1)C1=C(C(=O)O)Oc2ccc(OCc3ccccc3)cc2O1 (centres undefined)	0
CC(OCc1ccc2ccccc2c1)C1=C(C(=O)O)Oc2ccc(OCc3ccccc3)cc2O1 (centres undefined)	0

Query: Could you please find out whether CCN(CC)C(=O)C1=C(C(C)OCc2ccccc2)Oc2cc(OCc3ccccc3)ccc2O1 (centres undefined) has inhibition that meets 80% or exceeds it?
Response: 0

Query: Could you please find out whether CN(CCc1ccccc1)C(=O)C1=COc2ccc(OCc3ccccc3)cc2O1 has inhibition that meets 80% or exceeds it?
Response: 0

Query: Could you please find out whether O=C(O)C1=C(C(=O)N2CCC(Cc3ccccc3)CC2)Oc2ccc(OCc3ccccc3)cc2O1 has inhibition that meets 80% or exceeds it?
Response: 1

Query: Could you please find out whether CC(OC/C=C/c1ccccc1)C1=C(C(=O)O)Oc2ccc(OCc3ccccc3)cc2O1 (centres undefined) has inhibition that meets 80% or exceeds it?
Response: 1

Query: Could you please find out whether CN(CCc1ccccc1)C(=O)C1=C(C(=O)O)Oc2c(OCc3ccccc3)cccc2O1 has inhibition that meets 80% or exceeds it?
Response: 1

----------
Target system: Leukotriene B4 receptor (Homo sapiens, UniProt Q9NPC1+Q15722)
Run description: Antagonist activity against LTB4 receptor in human U-937 cells at 0.00001 M incubated for 40 mins by liquid scintillation counting method
Format: cell-based
Run conditions: dose 10 µM
Value type: inhibition (%)
Answers are plain numbers, in %.

Compound	Value type	Unit abbreviation	Reported result
O=C(O)C1=C(C(=O)N2CCC(c3ccccc3)CC2)Oc2cc(OCc3ccccc3)ccc2O1	inhibition	%	33
O=C(O)C1=C(C(=O)N2CCC(c3ccccc3)CC2)Oc2ccc(OCc3ccccc3)cc2O1	inhibition	%	29
CN(CCc1ccccc1)C(=O)C1=C(C(=O)O)Oc2cccc(OCc3ccccc3)c2O1	inhibition	%	39

Query: Please look at this compound and report its inhibition: CC1(CCOCc2ccccc2)OC(=O)C2=C1Oc1cc(OCc3ccccc3)ccc1O2 (centres undefined)
Response: 13

----------
Target system: Leukotriene B4 receptor (Homo sapiens, UniProt Q9NPC1+Q15722)
Run description: Antagonist activity against LTB4 receptor in human U-937 cells at 0.0000001 M incubated for 40 mins by liquid scintillation counting method
Assay type: cell-based
Run conditions: dose 100 nM
Outcome: 1.0 for inhibition of at least 20%; 0.0 for anything lower.

Query: Could you please find out whether CN(CCc1ccccc1)C(=O)C1=C(C(=O)O)Oc2c(OCc3ccccc3)cccc2O1 has inhibition that meets 20% or exceeds it?
Response: 0.0

Query: Could you please find out whether CC1(CCOCc2ccccc2)OC(=O)C2=C1Oc1cc(OCc3ccccc3)ccc1O2 (configuration not stated) has inhibition that meets 20% or exceeds it?
Response: 0.0

Query: Could you please find out whether CN(CCc1ccccc1)C(=O)C1=COc2ccc(OCc3ccccc3)cc2O1 has inhibition that meets 20% or exceeds it?
Response: 0.0

Query: Could you please find out whether O=C(O)C1=C(C(=O)N2CCC(Cc3ccccc3)CC2)Oc2cccc(OCc3ccccc3)c2O1 has inhibition that meets 20% or exceeds it?
Response: 0.0

Query: Could you please find out whether O=C(O)C1=C(C(=O)N2CCC(c3ccccc3)CC2)Oc2cc(OCc3ccccc3)ccc2O1 has inhibition that meets 20% or exceeds it?
Response: 0.0

Query: Could you please find out whether CC(OC/C=C/c1ccccc1)C1=C(C(=O)O)Oc2cc(OCc3ccccc3)ccc2O1 (configuration not stated) has inhibition that meets 20% or exceeds it?
Response: 0.0

Query: Could you please find out whether CC(OCc1ccccc1)C1=C(C(=O)O)Oc2ccc(OCc3ccccc3)cc2O1 (configuration not stated) has inhibition that meets 20% or exceeds it?
Response: 0.0

Query: Could you please find out whether CN(CCc1ccccc1)C(=O)C1=C(C(=O)O)Oc2cccc(OCc3ccccc3)c2O1 has inhibition that meets 20% or exceeds it?
Response: 0.0

Query: Could you please find out whether CN(CCc1ccccc1)C(=O)C1=C(C(=O)O)Oc2ccc(OCc3ccccc3)cc2O1 has inhibition that meets 20% or exceeds it?
Response: 1.0

Query: Could you please find out whether CC(OCc1ccc2ccccc2c1)C1=C(C(=O)O)Oc2ccc(OCc3ccccc3)cc2O1 (configuration not stated) has inhibition that meets 20% or exceeds it?
Response: 0.0

Query: Could you please find out whether CN(CCc1ccccc1)C(=O)C1=C(C(=O)O)Oc2cc(OCc3ccccc3)ccc2O1 has inhibition that meets 20% or exceeds it?
Response: 1.0

Query: Could you please find out whether CN(CCc1ccccc1)C(=O)C1=C(C(=O)O)Oc2cc(OCc3ccc4ccccc4c3)ccc2O1 has inhibition that meets 20% or exceeds it?
Response: 0.0

Query: Could you please find out whether O=C(O)C1=C(C(=O)N2CCC(Cc3ccccc3)CC2)Oc2cc(OCc3ccccc3)ccc2O1 has inhibition that meets 20% or exceeds it?
Response: 1.0

Query: Could you please find out whether CCN(CC)C(=O)C1=C(C(C)OCc2ccccc2)Oc2cc(OCc3ccccc3)ccc2O1 (configuration not stated) has inhibition that meets 20% or exceeds it?
Response: 0.0

Query: Could you please find out whether CC(OCc1ccccc1)C1=C(C(=O)O)Oc2cc(OCc3ccccc3)ccc2O1 (configuration not stated) has inhibition that meets 20% or exceeds it?
Response: 0.0

----------
Provide the reported inhibition of each item.
Target system: Leukotriene B4 receptor (Homo sapiens, UniProt Q9NPC1+Q15722)
Run description: Antagonist activity against LTB4 receptor in human U-937 cells at 0.00001 M incubated for 40 mins by liquid scintillation counting method
Assay type: cell-based
Run conditions: filed as antagonist, dose 10 µM
Numbers only, in %.

Reference set, count: 2
Compound	Target system	Unit abbreviation	inhibition
O=C(O)C1=C(C(=O)N2CCC(Cc3ccccc3)CC2)Oc2cc(OCc3ccccc3)ccc2O1	Leukotriene B4 receptor (Homo sapiens, UniProt Q9NPC1+Q15722)	%	78
CC(OC/C=C/c1ccccc1)C1=C(C(=O)O)Oc2cc(OCc3ccccc3)ccc2O1 (stereo not drawn)	Leukotriene B4 receptor (Homo sapiens, UniProt Q9NPC1+Q15722)	%	82

Now let's try a different one.
Query: Enter inhibition (test system Leukotriene B4 receptor (Homo sapiens, UniProt Q9NPC1+Q15722)) for CC(OCc1ccccc1)C1=C(C(=O)O)Oc2cc(OCc3ccccc3)ccc2O1 (stereo not drawn)
Response: 82
